These measurements were taken from patent US7135466B2.

target: c-kit (Homo sapiens, UniProt P10721); construct: MO7e (human megakaryocytic leukemia cell line) which had been arrested for 20 hr; endogenous in cells; host or cells: MO7e human megakaryocytic leukemia cell line; assay: Inhibitory activity against c-kit autophosphorylation (MO7e cells, h-SCF); type: cell-based; details: MO7e cells, h-SCF 50 ng/ml; read-out: c-kit IC50
Sequence (P10721 26-976): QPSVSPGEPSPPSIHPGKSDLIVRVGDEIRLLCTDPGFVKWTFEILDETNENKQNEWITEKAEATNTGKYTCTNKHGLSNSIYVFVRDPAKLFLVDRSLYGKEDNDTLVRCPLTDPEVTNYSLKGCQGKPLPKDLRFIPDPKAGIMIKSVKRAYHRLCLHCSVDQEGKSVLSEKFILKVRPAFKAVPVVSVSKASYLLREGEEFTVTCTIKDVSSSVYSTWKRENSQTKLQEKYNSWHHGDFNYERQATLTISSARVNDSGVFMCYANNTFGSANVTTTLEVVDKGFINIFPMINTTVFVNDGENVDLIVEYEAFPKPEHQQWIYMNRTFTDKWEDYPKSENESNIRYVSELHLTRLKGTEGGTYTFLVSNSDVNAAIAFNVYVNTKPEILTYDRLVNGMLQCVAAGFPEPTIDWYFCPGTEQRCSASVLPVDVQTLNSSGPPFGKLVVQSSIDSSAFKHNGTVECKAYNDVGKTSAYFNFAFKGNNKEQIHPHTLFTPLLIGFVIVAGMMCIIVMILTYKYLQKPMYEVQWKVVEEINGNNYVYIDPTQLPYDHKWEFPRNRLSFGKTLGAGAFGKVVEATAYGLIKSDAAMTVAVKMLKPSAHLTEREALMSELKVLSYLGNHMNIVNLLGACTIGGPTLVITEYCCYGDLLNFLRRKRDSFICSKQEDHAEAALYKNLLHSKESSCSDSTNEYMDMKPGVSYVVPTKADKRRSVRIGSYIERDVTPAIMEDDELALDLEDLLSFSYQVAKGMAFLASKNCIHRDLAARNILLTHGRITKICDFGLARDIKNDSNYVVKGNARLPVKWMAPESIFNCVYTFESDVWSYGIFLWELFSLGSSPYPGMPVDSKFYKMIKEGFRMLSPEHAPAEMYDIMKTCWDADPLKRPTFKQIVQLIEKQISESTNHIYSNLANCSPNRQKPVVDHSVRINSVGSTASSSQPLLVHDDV
measuredQuantity: IC50

Recorded results for 2 compounds are shown here.
CCCCCCOC(=O)Nc1ccc(Oc2ncnc3cc(OC)c(OC)cc23)cc1
< 30 nM
COc1cc2nccc(Oc3ccc(NC(=O)Sc4ccc(Cl)cc4C)c(C)c3C)c2cc1OC
< 30 nM

Please turn your attention to the following entry.
Exam item: Specify IC50 for `C=CCOC(=O)Nc1ccc(Oc2ccnc3cc(OC)c(OC)cc23)c(C)c1C` and stop.
Marked response: < 30 nM

====

Let's look at some compounds and their measured IC50.
target: PDGF-Ra (Homo sapiens, UniProt P16234); construct: host or cells: G-292 human osteosarcoma cells; test: Inhibitory activity against PDGF-Ra phosphorylation by PDGF-AA stimulation using G292; assay type: cell-based; conditions: Pharmacological Test Example 1; > means inhibition at indicated concentration not more than 50%, < and << not less than 50%; read-out: PDGF (E) IC50
Sequence (P16234 24-1089): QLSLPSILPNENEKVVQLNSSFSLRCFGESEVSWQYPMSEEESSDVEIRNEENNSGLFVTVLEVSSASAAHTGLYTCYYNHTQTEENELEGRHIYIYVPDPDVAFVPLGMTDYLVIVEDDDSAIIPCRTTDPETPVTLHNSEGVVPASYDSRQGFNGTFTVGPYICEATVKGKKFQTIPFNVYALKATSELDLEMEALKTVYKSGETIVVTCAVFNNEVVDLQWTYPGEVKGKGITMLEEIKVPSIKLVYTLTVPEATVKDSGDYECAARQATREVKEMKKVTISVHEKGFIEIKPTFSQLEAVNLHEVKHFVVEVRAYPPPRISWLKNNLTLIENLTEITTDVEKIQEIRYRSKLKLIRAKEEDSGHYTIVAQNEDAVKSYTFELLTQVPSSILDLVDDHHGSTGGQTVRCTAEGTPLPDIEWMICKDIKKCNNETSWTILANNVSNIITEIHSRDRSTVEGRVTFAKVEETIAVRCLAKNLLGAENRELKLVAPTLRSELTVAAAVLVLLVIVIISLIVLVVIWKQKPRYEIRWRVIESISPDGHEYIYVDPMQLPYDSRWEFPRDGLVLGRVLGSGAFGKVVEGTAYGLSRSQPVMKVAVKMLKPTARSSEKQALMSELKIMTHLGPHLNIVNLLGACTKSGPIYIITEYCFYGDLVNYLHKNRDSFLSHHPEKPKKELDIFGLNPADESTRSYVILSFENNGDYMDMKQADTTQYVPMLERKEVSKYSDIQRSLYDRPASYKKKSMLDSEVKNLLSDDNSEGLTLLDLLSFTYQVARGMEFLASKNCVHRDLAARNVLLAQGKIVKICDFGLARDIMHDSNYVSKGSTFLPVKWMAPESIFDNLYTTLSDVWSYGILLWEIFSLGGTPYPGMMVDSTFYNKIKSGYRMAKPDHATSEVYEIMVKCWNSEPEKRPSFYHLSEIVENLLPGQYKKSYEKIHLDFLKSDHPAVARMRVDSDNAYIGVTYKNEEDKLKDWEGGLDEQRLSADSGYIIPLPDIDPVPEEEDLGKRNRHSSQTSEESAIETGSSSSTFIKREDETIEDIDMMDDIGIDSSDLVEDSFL

Exam item: Specify IC50 for `COc1cc2ncnc(Oc3ccc(NC(=O)OCCSc4ccc(C)cc4)cc3)c2cc1OC` and stop.
Marked response: < 10 nM

Exam item: Specify IC50 for `COc1cc2nccc(Oc3cc(C)c(NC(=O)Oc4ccccc4C)cc3C)c2cc1OC` and stop.
Marked response: < 10 nM

Exam item: Specify IC50 for `COc1cc2nccc(Oc3ccc(NC(=O)OCCCOc4ccc(Cl)cc4)c(C)c3C)c2cc1OC` and stop.
Marked response: < 10 nM

Exam item: Specify IC50 for `COc1cc2nccc(Oc3ccc(NC(=O)OCCCOc4ccccc4F)cc3)c2cc1OC` and stop.
Marked response: < 10 nM

Exam item: Specify IC50 for `CCCCCCCCCCCCCCCCCCOC(=O)Nc1ccc(Oc2ccnc3cc(OC)c(OC)cc23)c(C)c1C` and stop.
Marked response: > 100 nM

Exam item: Specify IC50 for COc1ccc(C(C)OC(=O)Nc2ccc(Oc3ncnc4cc(OC)c(OC)cc34)cc2)cc1 (stereo not drawn) and stop.
Marked response: < 10 nM

Exam item: Specify IC50 for `COc1cc2ncnc(Oc3ccc(NC(=O)OCC4CCCCCC4)cc3)c2cc1OC` and stop.
Marked response: < 10 nM

====

target: c-kit (Homo sapiens, UniProt P10721); construct: MO7e (human megakaryocytic leukemia cell line) which had been arrested for 20 hr; endogenous in cells; host or cells: MO7e human megakaryocytic leukemia cell line; assay: Inhibitory activity against c-kit autophosphorylation (MO7e cells, h-SCF); format: cell-based; details: MO7e cells, 50 ng/ml h-SCF; read-out: c-kit IC50
measuredQuantity: pIC50
On this scale, pIC50 is minus log10 of a concentration expressed in M (mol/L).

Recorded results for 2 compounds are shown here.
COc1cc2ncnc(Oc3ccc(NC(=O)OC4CCOCC4)cc3)c2cc1OC [Example 473]
6.59
COc1cc2nccc(Oc3ccc(NC(=O)NCCN4CCCCC4)c([N+](=O)[O-])c3)c2cc1OC [Example 678]
6.79

Please turn your attention to the following entry.
Exam item: Specify pIC50 for CCN(CC)CCNC(=O)Nc1ccc(Oc2ccnc3cc(OC)c(OC)cc23)c(Cl)c1 [Example 651] and stop.
Marked response: 6.09
